Test system: Jurkat
assay-details: Cytotoxicity against human Jurkat cells
Format: functional, cell-based
property-label: pIC50
API: returns pIC50 as number; meaning -log10 of concentration in mol/L.

See these solved cases before continuing.
| compound | target-of-assay | pIC50 |
| --- | --- | --- |
| Cc1nc(N(C)Cc2ccccc2)nc(-n2ccnc2C)c1[N+](=O)[O-] | Jurkat | 4.60 |
| Nc1ccn(C[C@@H](CO)OCP(=O)(O)O)c(=O)n1.O.O [CIDOFOVIR] | Jurkat | 4.00 |
| Cc1nc(NC2CCc3ccccc32)nc(-n2ccnc2C)c1[N+](=O)[O-] (stereo not given) | Jurkat | 4.00 |

--- query ---
Which pIC50 is reported for this compound? Cc1nc(N(C)c2ccccc2)nc(-n2ccnc2C)c1[N+](=O)[O-]
4.10

FYI, the data here is from ChEMBL document CHEMBL1149480.
